yeast surface expression for assorted variants
B1: scFv; the commonest letter at each place (parent)
chain 1: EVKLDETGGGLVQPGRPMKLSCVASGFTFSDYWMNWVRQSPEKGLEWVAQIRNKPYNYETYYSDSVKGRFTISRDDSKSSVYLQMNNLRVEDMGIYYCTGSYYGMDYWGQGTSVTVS
chain 2: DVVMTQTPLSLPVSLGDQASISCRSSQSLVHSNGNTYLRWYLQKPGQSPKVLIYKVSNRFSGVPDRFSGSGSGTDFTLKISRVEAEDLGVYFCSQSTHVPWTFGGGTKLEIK

variants of: B1; experiment: yeast surface expression (ratio to wild type); higher = more expressed; settings: format: scFv 4-4-20, heavy + light

mutant.code: chain 1 Y103K D106M
yeast surface expression: 0.716
--
mutant.code: chain 1 M34I W36F
yeast surface expression: 0.811

## Task // lookup yeast surface expression for chain 1 S101N Y103L
## Result 0.964

## Task Find the recorded yeast surface expression belonging to chain 1 Y102G G109K and report it.
## Result 0.336

## Task What does the record list as yeast surface expression for chain 1 S101G Y107K ?
## Result 0.907

## Task // query yeast surface expression value for entry chain 1 S101T Y102M
## Result 0.778

## Task Look up yeast surface expression for this variant: chain 1 Y103I G109V
## Result 0.222
